tested on: H2O2-stimulated PC 12 cell lines; assay: Protection against H2O2-induced oxidative damage (CCK-8); assay type: cell-based, rat; conditions: Rattus norvegicus, PC-12, Dose 20 μM; H2O2-induced oxidative damage, PC 12; H2O2 group 49.69 ± 1.37, control 100
viability at 20 µM listing for selected compounds.
Numeric only. Scale: %

// worked examples, viability at 20 µM included
COc1cc(/C=C/C(=O)CC(=O)/C=C/c2c(C)cc(O)cc2C)cc(CN(C)C)c1O [Compound 13a] = 90.2
COc1cc(/C=C/C(=O)CC(=O)/C=C/c2ccc(O)c(OC)c2)ccc1O [Curcumin, curcumin, reference compound] = 86.4
COc1ccc(/C=C/C(=O)CC(=O)/C=C/c2cc(CN(C)C)c(O)c(OC)c2)cc1O [Compound 11a] = 97.3

Read the next record carefully.
Request: Suppose we examine the compound COc1cc(/C=C/C(=O)CC(=O)/C=C/c2ccc(O)cc2C)cc(CN(C)C)c1O ; what viability at 20 µM value has been reported?
Result: 81.7

---

system: PC 12 cell lines; test: Radiation protection in vitro (CCK-8); type: cell-based, rat; conditions: Dose 10 μM; radiation 8.0 Gy, PC 12; radiation group 50.22 ± 1.08; in % (unit assumed)
Cell viability listing for selected compounds.
Keep it simple and answer with nothing but the number.

CCOc1cc(/C=C/C(=O)CC(=O)/C=C/c2cc(CN(C)C)c(O)c(OC)c2)ccc1O [Compound 1] = 57.30

Request: Suppose we examine the compound COc1ccc(/C=C/C(=O)CC(=O)/C=C/c2cc(CN(C)C)c(O)c(OC)c2)cc1O [Compound 11a] ; what Cell viability value has been reported?
Result: 64.92

Request: Suppose we examine the compound COc1cc(/C=C/C(=O)CC(=O)/C=C/c2c(OC)cc(O)cc2OC)cc(CN(C)C)c1O [Compound 14a] ; what Cell viability value has been reported?
Result: 68.68

Request: Suppose we examine the compound COc1cc(/C=C/C(=O)CC(=O)/C=C/c2ccc(O)cc2F)cc(CN(C)C)c1O [Compound 4] ; what Cell viability value has been reported?
Result: 51.75

Request: Suppose we examine the compound COc1cc(/C=C/C(=O)CC(=O)/C=C/c2ccc(O)c(Cl)c2)cc(CN(C)C)c1O [Compound 7] ; what Cell viability value has been reported?
Result: 63.26

Request: Suppose we examine the compound COc1cc(O)ccc1/C=C/C(=O)CC(=O)/C=C/c1cc(CN(C)C)c(O)c(OC)c1 [Compound 9] ; what Cell viability value has been reported?
Result: 59.94

---

tested on: H2O2-stimulated PC 12 cell lines; assay: Protection against H2O2-induced oxidative damage (CCK-8); assay type: cell-based, rat; settings: Rattus norvegicus, PC-12, Dose 20 μM; H2O2-induced oxidative damage, PC 12; H2O2 group 49.69 ± 1.37, control 100
viability at 20 µM listing for selected compounds.
Numeric only. Scale: %

// worked examples, viability at 20 µM included
COc1ccc(/C=C/C(=O)CC(=O)/C=C/c2cc(CN(C)C)c(O)c(OC)c2)cc1OC = 103
COc1cc(/C=C/C(=O)CC(=O)/C=C/c2ccc(O)cc2)cc(CN(C)C)c1O [Compound 10a] = 84
COc1cc(/C=C/C(=O)CC(=O)/C=C/c2ccc(O)c(Cl)c2)cc(CN(C)C)c1O = 78.2
COc1cc(O)ccc1/C=C/C(=O)CC(=O)/C=C/c1cc(CN(C)C)c(O)c(OC)c1 = 66.1
COc1cc(/C=C/C(=O)CC(=O)/C=C/c2cc(CN(C)C)c(O)c(OC)c2)ccc1O [Compound 15a] = 89.2

Request: Suppose we examine the compound COc1cc(/C=C/C(=O)CC(=O)/C=C/c2cc(OC)c(O)c(OC)c2)cc(CN(C)C)c1O ; what viability at 20 µM value has been reported?
Result: 63.4

Request: Suppose we examine the compound CCOc1cc(/C=C/C(=O)CC(=O)/C=C/c2cc(CN(C)C)c(O)c(OC)c2)ccc1O ; what viability at 20 µM value has been reported?
Result: 86.4

Request: Suppose we examine the compound COc1cc(/C=C/C(=O)CC(=O)/C=C/c2ccc(O)cc2F)cc(CN(C)C)c1O ; what viability at 20 µM value has been reported?
Result: 84.7

---

Cell viability listing for selected compounds.
tested on: PC 12 cell lines; assay: Radiation protection in vitro (CCK-8); assay type: cell-based, rat; details: Dose 5 μM; radiation 8.0 Gy, PC 12; radiation group 50.22 ± 1.08; in % (unit assumed)
Keep it simple and answer with nothing but the number.

// worked examples, Cell viability included
COc1cc(/C=C/C(=O)CC(=O)/C=C/c2ccc(O)cc2)cc(CN(C)C)c1O [Compound 10a] = 61.98
CCOc1cc(/C=C/C(=O)CC(=O)/C=C/c2cc(CN(C)C)c(O)c(OC)c2)ccc1O = 47.61

Request: Suppose we examine the compound COc1cc(/C=C/C(=O)CC(=O)/C=C/c2ccc(O)cc2C)cc(CN(C)C)c1O ; what Cell viability value has been reported?
Result: 49.57

---

Tested on: H2O2-stimulated PC 12 cell lines
Assay: Protection against H2O2-induced oxidative damage (CCK-8)
Type: cell-based, rat
Settings: Dose 10 μM; H2O2-induced oxidative damage, PC 12; H2O2 group 49.69 ± 1.37, control 100; in % (unit assumed)
Procedure: PC 12 cells were seeded in 96-well plates at a density of 8000 cells/well and incubated overnight. […] After incubating under the same conditions for 24 h, 10 μL CCK-8 solution was added to each well. After 2 h incubation, the absorbance of each well was measured at 450 nm using a microplated reader (Multiskan MK-3, Thermo, Waltham, MA, USA).
Reported Metric: Cell viability
Keep it simple and answer with nothing but the number.

// worked examples, Cell viability included
COc1cc(O)ccc1/C=C/C(=O)CC(=O)/C=C/c1cc(CN(C)C)c(O)c(OC)c1 = 70.76
COc1cc(/C=C/C(=O)CC(=O)/C=C/c2ccc(O)cc2)cc(CN(C)C)c1O = 58.20
COc1cc(/C=C/C(=O)CC(=O)/C=C/c2cc(C)c(O)c(C)c2)cc(CN(C)C)c1O = 81.49
COc1cc(/C=C/C(=O)CC(=O)/C=C/c2ccc(OC)c(OC)c2OC)cc(CN(C)C)c1O = 76.41
COc1cc(/C=C/C(=O)CC(=O)/C=C/c2c(OC)cc(O)cc2OC)cc(CN(C)C)c1O = 65.73
COc1cc(/C=C/C(=O)CC(=O)/C=C/c2cc(OC)c(O)c(OC)c2)cc(CN(C)C)c1O = 61.51
COc1cc(/C=C/C(=O)CC(=O)/C=C/c2ccc(O)cc2F)cc(CN(C)C)c1O = 75.00
COc1cc(/C=C/C(=O)CC(=O)/C=C/c2ccc(O)cc2C)cc(CN(C)C)c1O = 72.94

Request: Suppose we examine the compound COc1ccc(/C=C/C(=O)CC(=O)/C=C/c2cc(CN(C)C)c(O)c(OC)c2)cc1OC ; what Cell viability value has been reported?
Result: 84.53

---

test system: PC 12 cell lines; experiment: Radiation protection in vitro (CCK-8); format: cell-based, rat; conditions: Dose 20 μM; radiation 8.0 Gy, PC 12; radiation group 50.22 ± 1.08; in % (unit assumed)
Cell viability listing for selected molecules.
Keep it simple and answer with nothing but the number.

// worked examples, Cell viability included
COc1cc(/C=C/C(=O)CC(=O)/C=C/c2c(C)cc(O)cc2C)cc(CN(C)C)c1O [Compound 13a] = 88.50
COc1cc(/C=C/C(=O)CC(=O)/C=C/c2cc(OC)c(O)c(OC)c2)cc(CN(C)C)c1O [Compound 2] = 54.68
COc1cc(/C=C/C(=O)CC(=O)/C=C/c2cc(C)c(O)c(C)c2)cc(CN(C)C)c1O = 78.50
COc1cc(/C=C/C(=O)CC(=O)/C=C/c2cc(OC)c(O)c(OC)c2)cc(CN(C)C)c1O [Compound 2a] = 92.24
COc1cc(O)ccc1/C=C/C(=O)CC(=O)/C=C/c1cc(CN(C)C)c(O)c(OC)c1 = 65.00
COc1cc(/C=C/C(=O)CC(=O)/C=C/c2c(OC)cc(O)cc2OC)cc(CN(C)C)c1O [Compound 14a] = 77.66

Request: Suppose we examine the molecule COc1cc(/C=C/C(=O)CC(=O)/C=C/c2ccc(O)cc2F)cc(CN(C)C)c1O [Compound 4a] ; what Cell viability value has been reported?
Result: 97.55

Request: Suppose we examine the molecule COc1cc(/C=C/C(=O)CC(=O)/C=C/c2ccc(O)cc2C)cc(CN(C)C)c1O ; what Cell viability value has been reported?
Result: 57.44

Request: Suppose we examine the molecule COc1ccc(/C=C/C(=O)CC(=O)/C=C/c2cc(CN(C)C)c(O)c(OC)c2)cc1OC ; what Cell viability value has been reported?
Result: 104.23

Request: Suppose we examine the molecule COc1cc(/C=C/C(=O)CC(=O)/C=C/c2ccc(O)cc2F)cc(CN(C)C)c1O [Compound 4] ; what Cell viability value has been reported?
Result: 59.56

Request: Suppose we examine the molecule COc1ccc(/C=C/C(=O)CC(=O)/C=C/c2cc(CN(C)C)c(O)c(OC)c2)cc1O [Compound 11a] ; what Cell viability value has been reported?
Result: 106.32
